tested on: MDA-MB-468 breast; test: NCI tumour cell line growth inhibition, 48 h
Measurement label: TGI

// Input: "COc1ccc(Oc2cc(NCCC(F)(F)F)c3ncc(-c4ccc(C(=O)NC5CC5)c(C)c4)n3n2)c(F)c1F" . Output its TGI only.
> 100 µM

Determine its reported TGI: "CNCCCn1c2c(c3ccc(F)cc3c1=O)C(=O)c1cc(OC)cnc1-2"
0.66 µM

Fill in reported TGI for this entry: "CN1CCN(c2ccc(Nc3nc(NCCNC(=O)c4ccc(C(F)(F)F)cc4)c4sccc4n3)cc2)CC1"
9.44 µM

Read the entry CC1(C)CC[C@]2(C(=O)Nc3ccc(F)cc3)CC[C@]3(C)C(=CCC4[C@@]5(C)C[C@@H](O)[C@H](O)[C@@](C)(CO)C5CC[C@]43C)C2C1 (stereo partly specified) and write its reported TGI.
31.3 µM

Indicate its recorded TGI; the molecule in question is "O=C(COc1ccc(-c2nc3cc(Cl)c(Cl)cc3[nH]2)cc1)N=Nc1c(O)[nH]c2ccccc12"
6.23 µM

Give the reported value of TGI for this record: "Cn1c2ccccc2c2nnc(NNCc3ccccn3)nc21"
1.16 µM

Please look at this molecule and report its TGI: "CN(C)c1ccc(C(=C2C=CC(=[N+](C)C)C=C2)c2ccccc2Cl)cc1"
0.655 µM

Give the reported value of TGI for this record: "CC(=O)/C(=C\c1c(-c2ccccc2)[nH]c2ccccc12)S(=O)(=O)c1ccccc1"
14.8 µM

Check the records and state TGI for "COc1ccc2nccc(/C=C/c3ccnc4ccc(OC)cc34)c2c1"
> 100 µM

Determine its reported TGI: "C[C@]12CC[C@@H]3c4ccc(O)cc4CC[C@H]3[C@@H]1CC[C@@H]2NS(=O)(=O)c1ccc2ccccc2c1"
15.2 µM

// Input: CCCCCSC1C2C(=O)C(Br)=CC13CCNc1c(O)c4c5c(c13)=[N+]2CCC=5C=N4 (stereo unspecified) . Output its TGI only.
1.09 µM

Quickly give me recorded TGI for CSc1nc(N)c2c(n1)NC(c1ccccc1)C1CCc3ccccc3C1=N2 (stereo unspecified)
> 100 µM

Find the measured TGI of "COc1ccc(-c2nc(-c3nc4ccc(C(F)(F)F)cc4[nH]3)c3ccccn23)cc1" and report it.
> 100 µM

Give the reported value of TGI for this record: "O=C(Nc1cccc(-n2cc(-c3ccncc3)c(-c3ccc(O)c(Cl)c3)n2)c1)c1ccc(Cl)c(Cl)c1"
> 100 µM

Please look at this molecule and report its TGI: "Clc1ccc(N2CCC(N3CCCC3)CC2)cc1-c1nc2ccccc2[nH]1"
26.3 µM

Specify measured TGI for "COc1ccc(/C(=N/O)c2cc(OC)c(OC)c(OC)c2)c(OC)c1N" .
> 100 µM
